The values you see were collected from PubChem BioAssay AID1159580.

Assay: chemical genetic growth profiling, strain panel (AID 1159580);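 also: tested at 20 µM; growth read once vehicle control cultures reached saturation at 30 °C; 1 = growth at the plate median or of vehicle wells; lower values mean less growth of the strain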
Conditions: S. cerevisiae deletion strains, growth OD, locus YCL061C, strain MRC1, hits give low values
About 2,000 (36%) of roughly 5,500 compounds were called active. Inconclusive results (about 18%) are left out. The list shows a part of the results. Where a SMILES comes first, the peptide text is derived from it. Bridges are numbered along the chain shown (N, C = ends). [ ]: non-standard residue; d: D form. The star is where a group is joined. ξ: configuration not given here. ξDab(CH2SO3H) = NC(CCNCS(=O)(=O)O)C(=O)O; Heptanoyl(6-Me) = CC(C)CCCCC(=O)*; Dab = NCC[CH](N)C(=O)O
Would you kindly list normalized growth for each of these compounds?
Respond with the number and no other words.

*Q* I'd like to know its normalized growth. The compound in question is CC(CC(=O)C(O)C(C)(C)O)C1C(=O)CC2(C)C3=CCC4C(C)(C)C(OC5OCC(O)C(O)C5O)CCC45CC35C(O)CC12C (centres undefined)
*A* 1.01

*Q* I'd like to know its normalized growth. The compound in question is CCOC(=O)c1ccc2[nH]c(-c3ccccc3)cc(=O)c2c1
*A* 1.01

*Q* I'd like to know its normalized growth. The compound in question is CCOc1ccc2nc3cc(N)ccc3c(N)c2c1
*A* 0.846

*Q* I'd like to know its normalized growth. The compound in question is COc1ccc(NC(=O)C(C)c2ccc(CC(C)C)cc2)cc1 (centres undefined)
*A* 0.848

*Q* I'd like to know its normalized growth. The compound in question is CO[C@@]12[C@@H]3NC3CN1C1=C(C(=O)C(N)=C(C)C1=O)[C@@H]2COC(N)=O (some centres undefined)
*A* 0.919

*Q* I'd like to know its normalized growth. The compound in question is COc1ccc(C(=O)CN2CCN(c3cc(C)nc4ccccc34)CC2)cc1
*A* 1

*Q* I'd like to know its normalized growth. The compound in question is COc1cc(OC)nc(N)n1
*A* 1.03

*Q* I'd like to know its normalized growth. The compound in question is COc1ccc(-c2n[nH]c(=S)n2-c2cccc(OC)c2)cc1
*A* 0.977

*Q* I'd like to know its normalized growth. The compound in question is CC(=O)O[C@H]1CC[C@@]2(C)C(CC[C@]3(C)C2CC=C2C4CC(C)(C)CC[C@]4(C)CC[C@]23C)C1(C)C (some centres undefined)
*A* 0.99

*Q* I'd like to know its normalized growth. The compound in question is CCCOc1ccccc1-c1nc2n[nH]nc2c(=O)[nH]1
*A* 1

*Q* I'd like to know its normalized growth. The compound in question is CC1(C)CC[C@]2(C(=O)O)CC[C@]3(C)C(=CCC4[C@@]5(C)CC[C@H](O)[C@@](C)(CO)C5CC[C@]43C)C2C1 (some centres undefined)
*A* 1.02

*Q* I'd like to know its normalized growth. The compound in question is COc1c(-c2coc3cc4c(cc3c2=O)CC(OC(C)=O)C(C)(C)O4)ccc2c1C=CC(C)(C)O2 (centres undefined)
*A* 1.03

*Q* I'd like to know its normalized growth. The compound in question is CCC(C)C1NC(=O)C(CCNCS(=O)(=O)O)NC(=O)C(NC(=O)C(CCNCS(=O)(=O)O)NC(=O)C(NC(=O)C(CCNCS(=O)(=O)O)NC(=O)CCCCC(C)C)C(C)O)CCNC(=O)C(C(C)O)NC(=O)C(CCNCS(=O)(=O)O)NC(=O)C(CCNCS(=O)(=O)O)NC(=O)C(C(C)CC)NC1=O (centres undefined) ({Heptanoyl(6-Me)}-[ξDab(CH2SO3H)]T[ξDab(CH2SO3H)][Dab][ξDab(CH2SO3H)]II[ξDab(CH2SO3H)][ξDab(CH2SO3H)]T; lactam 4-C; configuration not given here)
*A* 0.996

*Q* I'd like to know its normalized growth. The compound in question is CCCCCc1ccc(C(=O)O/N=C\c2c(Cl)cccc2Cl)cc1
*A* 0.933

*Q* I'd like to know its normalized growth. The compound in question is Cc1csc2ccc(Cl)cc12
*A* 1.01

*Q* I'd like to know its normalized growth. The compound in question is CC(C)(C)c1nccc(-c2nn(-c3ccc(F)cc3)ccc2=O)n1
*A* 1.02

*Q* I'd like to know its normalized growth. The compound in question is CC(=O)O[C@@H]1CC[C@@]2(C)C(CC[C@]3(C)C2CC=C2C4CC(C)(C)CC[C@]4(C(=O)O)CC[C@]23C)C1(C)C (some centres undefined)
*A* 1

*Q* I'd like to know its normalized growth. The compound in question is COC(=O)C[C@H]1C(C)(C)C2(O)OC34CC2C(=O)[C@]1(C)C3CC[C@]1(C)C4=CC(=O)O[C@H]1c1ccoc1 (some centres undefined)
*A* 1.02

*Q* I'd like to know its normalized growth. The compound in question is COc1cc(C(=O)NCCCCCC(=O)O)cc(OC)c1OC
*A* 0.995

---

Experiment: chemical genetic growth profiling, strain panel (AID 1159580);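 also: tested at 20 µM; growth read once vehicle control cultures reached saturation at 30 °C; 1 = growth at the plate median or of vehicle wells; lower values mean less growth of the strain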
Conditions: S. cerevisiae deletion strains, growth OD, locus YPL241C, strain CIN2, hits give low values
Out of some 5,500 compounds screened, about 2,000 (36%) were called active. Roughly 18% stayed inconclusive and do not appear here. This is one part of the list.
Would you kindly list normalized growth for each of these compounds?
Respond with the number and no other words.

*Q* I'd like to know its normalized growth. The compound in question is N=C(N)c1ccc(N)cc1
*A* 1

*Q* I'd like to know its normalized growth. The compound in question is O=C1ON=C(c2ccccc2)/C1=C/c1ccc(Cl)cc1
*A* 0.331

*Q* I'd like to know its normalized growth. The compound in question is O=C(O)/C=C1\CCCc2ccccc2C1O (stereo unspecified)
*A* 0.997

*Q* I'd like to know its normalized growth. The compound in question is CCOC(=O)c1ccc2[nH]c(-c3ccccc3)cc(=O)c2c1
*A* 1.03

*Q* I'd like to know its normalized growth. The compound in question is O=C(Nc1cc2cc([N+](=O)[O-])ccc2oc1=O)c1c(F)cccc1F
*A* 1.02

*Q* I'd like to know its normalized growth. The compound in question is O=C1Cc2c([nH]c3ccc(Br)cc23)-c2ccccc2N1
*A* 0.985

*Q* I'd like to know its normalized growth. The compound in question is Cc1ccc2[nH]c3c(c2c1)CCCC3
*A* 0.722

*Q* I'd like to know its normalized growth. The compound in question is O=C1ON=C(CSc2ccccc2)/C1=C/c1ccc(Cl)cc1
*A* 0.0913

*Q* I'd like to know its normalized growth. The compound in question is NC(N)=N/N=C/c1c(Cl)cccc1Cl
*A* 1.02

*Q* I'd like to know its normalized growth. The compound in question is CCOC(=O)c1sc(-c2ccc(C)cc2)nc1O
*A* 0.463

*Q* I'd like to know its normalized growth. The compound in question is O=C(O)c1ccc(N=Cc2ccc3c(c2)OCO3)cc1
*A* 0.992

*Q* I'd like to know its normalized growth. The compound in question is NCCc1ccc(S(=O)(=O)F)cc1
*A* 1.01

*Q* I'd like to know its normalized growth. The compound in question is O=S(=O)(CCN1CCOCC1)c1ccc(Cl)cc1
*A* 0.986

*Q* I'd like to know its normalized growth. The compound in question is NN=C(N)N
*A* 1.01

*Q* I'd like to know its normalized growth. The compound in question is COc1ccc2c(c1)c(CC(=O)N1CCOCC1)c(C)n2C(=O)c1ccc(Cl)cc1
*A* 1.01

*Q* I'd like to know its normalized growth. The compound in question is N#CC(NCc1ccccc1)c1ccc(Cl)c(Cl)c1 (stereo unspecified)
*A* 0.938

*Q* I'd like to know its normalized growth. The compound in question is C[C@@H](N)Cc1cnc[nH]1
*A* 1.01

*Q* I'd like to know its normalized growth. The compound in question is N#CC(C#N)=CNc1cccc(N)n1
*A* 1

*Q* I'd like to know its normalized growth. The compound in question is O=C(Nc1ccc(Br)cc1Cl)C(Cl)(Cl)Cl
*A* 1.02

*Q* I'd like to know its normalized growth. The compound in question is CNCc1ccccc1
*A* 0.995

*Q* I'd like to know its normalized growth. The compound in question is COC(=O)C1Cc2c([nH]c3ccccc23)C2(CCN(C)CC2)N1 (stereo unspecified)
*A* 0.977

*Q* I'd like to know its normalized growth. The compound in question is CC(N)C1CCC(C(=O)Nc2ccncc2)CC1 (stereo unspecified)
*A* 0.996

*Q* I'd like to know its normalized growth. The compound in question is O=C(O/N=C\c1ccc2c(c1)OCO2)c1ccccc1Br
*A* 0.834

*Q* I'd like to know its normalized growth. The compound in question is CCc1cc2c(cc1C(=O)CC1(O)C(=O)Nc3ccc(Br)cc31)C(C)(C)CCC2(C)C (stereo unspecified)
*A* 1.02

*Q* I'd like to know its normalized growth. The compound in question is NO
*A* 1

*Q* I'd like to know its normalized growth. The compound in question is CC(C)=CCCC1(C)C=Cc2c(O)c3c(c(CC=C(C)C)c2O1)OC12C(=CC4CC1C(C)(C)OC2(C/C=C(/C)C(=O)O)C4O)C3=O (stereo unspecified)
*A* 0.98
